In this section we review reported pIC50 values for a set of molecules.
# tgt: human IGF1R (Homo sapiens, UniProt P08069)
# Sequence (P08069 31-1367): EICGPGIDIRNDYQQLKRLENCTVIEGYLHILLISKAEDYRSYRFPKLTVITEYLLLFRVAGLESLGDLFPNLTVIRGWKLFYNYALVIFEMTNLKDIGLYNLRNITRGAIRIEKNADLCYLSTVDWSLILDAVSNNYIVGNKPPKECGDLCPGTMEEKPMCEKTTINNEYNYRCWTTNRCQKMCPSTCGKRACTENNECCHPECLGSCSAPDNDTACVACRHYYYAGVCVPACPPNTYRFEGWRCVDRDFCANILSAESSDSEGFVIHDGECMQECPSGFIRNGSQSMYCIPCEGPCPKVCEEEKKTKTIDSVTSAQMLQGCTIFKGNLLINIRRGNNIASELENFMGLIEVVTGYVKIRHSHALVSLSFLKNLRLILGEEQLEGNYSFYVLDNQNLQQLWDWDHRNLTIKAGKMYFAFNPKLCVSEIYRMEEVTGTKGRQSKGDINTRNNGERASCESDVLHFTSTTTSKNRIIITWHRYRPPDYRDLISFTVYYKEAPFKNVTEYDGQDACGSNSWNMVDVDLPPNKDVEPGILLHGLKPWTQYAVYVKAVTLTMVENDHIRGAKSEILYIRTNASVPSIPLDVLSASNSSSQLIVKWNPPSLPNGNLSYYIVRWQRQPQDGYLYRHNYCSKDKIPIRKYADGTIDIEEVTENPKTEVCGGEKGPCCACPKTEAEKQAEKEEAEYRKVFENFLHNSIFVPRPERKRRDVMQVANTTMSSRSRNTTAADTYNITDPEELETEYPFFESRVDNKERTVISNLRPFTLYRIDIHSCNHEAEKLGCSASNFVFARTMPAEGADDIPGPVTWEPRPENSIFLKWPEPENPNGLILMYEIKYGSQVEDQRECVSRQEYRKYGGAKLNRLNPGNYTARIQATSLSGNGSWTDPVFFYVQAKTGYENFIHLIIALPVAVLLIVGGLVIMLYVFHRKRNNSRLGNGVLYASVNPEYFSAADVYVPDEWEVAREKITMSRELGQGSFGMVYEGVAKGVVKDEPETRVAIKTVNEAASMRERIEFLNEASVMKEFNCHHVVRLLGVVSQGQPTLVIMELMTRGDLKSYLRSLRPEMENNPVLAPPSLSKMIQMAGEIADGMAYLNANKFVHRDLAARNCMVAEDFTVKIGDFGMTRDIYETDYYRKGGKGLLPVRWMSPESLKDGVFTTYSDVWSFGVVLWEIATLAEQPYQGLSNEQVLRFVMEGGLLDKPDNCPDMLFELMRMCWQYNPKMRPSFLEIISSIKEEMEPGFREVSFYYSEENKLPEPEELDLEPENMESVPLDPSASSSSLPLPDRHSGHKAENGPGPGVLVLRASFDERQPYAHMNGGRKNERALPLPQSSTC
# protocol_details: Inhibition of insulin-like growth factor-1 receptor phosphorylation in R+ cells
# experimental_parameters: 30 nM IGF1, read-out: IGF cell class
pIC50: −log10 of the molar value.

// sample `Cc1cc(CNc2nccc(Nc3cc(OCc4cccc(NC(=O)OC(C)(C)C)c4)[nH]n3)n2)on1` , its pIC50 was 5.00 to 6.00

###

In this section we review reported IC50 values for a set of molecules.
# tgt: FGFR1 kinase (Homo sapiens, UniProt P11362)
# Sequence (P11362 22-822): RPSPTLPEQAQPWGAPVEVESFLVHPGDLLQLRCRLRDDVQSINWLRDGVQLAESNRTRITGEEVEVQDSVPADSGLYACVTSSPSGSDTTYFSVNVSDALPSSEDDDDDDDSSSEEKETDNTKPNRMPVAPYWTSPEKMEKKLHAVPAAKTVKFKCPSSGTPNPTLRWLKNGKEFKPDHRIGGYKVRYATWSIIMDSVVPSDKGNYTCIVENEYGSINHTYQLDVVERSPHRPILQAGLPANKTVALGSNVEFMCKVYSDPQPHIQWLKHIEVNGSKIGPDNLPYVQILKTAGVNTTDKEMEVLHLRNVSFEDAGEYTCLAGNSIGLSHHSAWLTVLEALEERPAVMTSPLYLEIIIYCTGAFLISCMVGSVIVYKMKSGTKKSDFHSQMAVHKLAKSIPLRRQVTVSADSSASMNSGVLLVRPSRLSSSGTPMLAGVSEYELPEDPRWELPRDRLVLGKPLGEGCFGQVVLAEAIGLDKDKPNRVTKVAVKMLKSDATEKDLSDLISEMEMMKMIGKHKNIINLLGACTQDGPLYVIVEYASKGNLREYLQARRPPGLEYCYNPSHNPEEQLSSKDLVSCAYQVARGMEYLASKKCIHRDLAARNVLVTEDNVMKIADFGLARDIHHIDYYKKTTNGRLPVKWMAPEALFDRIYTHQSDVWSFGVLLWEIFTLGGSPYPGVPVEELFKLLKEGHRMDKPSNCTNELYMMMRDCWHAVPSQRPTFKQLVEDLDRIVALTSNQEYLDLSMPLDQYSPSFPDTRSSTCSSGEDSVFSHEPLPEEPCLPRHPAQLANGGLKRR
# protocol_details: Kinase assay (using Caliper technology)
# Assay type: biochemical
# experimental_parameters: FGFR1 kinase, Caliper; upper bound of bin; read-out: IC50

Worked examples follow.
smiles=CNC(=O)c1cccc(CCc2cc(Nc3ccnc(NCc4cc(C)no4)n3)n[nH]2)c1 parameter=IC50 reading="< 200 nM"
smiles=Oc1cccc(CCc2cc(Nc3ccnc(NCc4cc(C5CC5)no4)n3)n[nH]2)c1 parameter=IC50 reading="< 200 nM"

I looked up `Cc1cc(CNc2nccc(Nc3cc(CCc4ccncc4)[nH]n3)n2)on1` and its IC50 for FGFR1 kinase (Homo sapiens, UniProt P11362) was < 10000 nM

I looked up `Cc1cc(CNc2nccc(Nc3cc(CCc4cc(C)nn4C)[nH]n3)n2)on1` and its IC50 for FGFR1 kinase (Homo sapiens, UniProt P11362) was < 1000 nM

I looked up `CNC(=O)c1cc(C)cc(CCc2cc(Nc3ccnc(NCc4cc(C)no4)n3)n[nH]2)c1` and its IC50 for FGFR1 kinase (Homo sapiens, UniProt P11362) was < 30000 nM

I looked up `CNC(=O)c1cc(CNc2nccc(Nc3cc(OC(C)C)n[nH]3)n2)on1` and its IC50 for FGFR1 kinase (Homo sapiens, UniProt P11362) was < 200 nM

I looked up `COc1cc(C)cc(COc2cc(Nc3ccnc(NCc4cc(C)no4)n3)n[nH]2)c1` and its IC50 for FGFR1 kinase (Homo sapiens, UniProt P11362) was < 200 nM

I looked up `Cc1cc(CNc2nccc(Nc3cc(CCc4cn(C)cn4)[nH]n3)n2)on1` and its IC50 for FGFR1 kinase (Homo sapiens, UniProt P11362) was < 10000 nM

I looked up `Cc1cc(CNc2nccc(Nc3cc(-c4ccco4)[nH]n3)n2)on1` and its IC50 for FGFR1 kinase (Homo sapiens, UniProt P11362) was < 1000 nM

I looked up `c1coc(CCc2cc(Nc3ccnc(NCc4cc(C5CC5)no4)n3)n[nH]2)c1` and its IC50 for FGFR1 kinase (Homo sapiens, UniProt P11362) was < 200 nM

###

In this section we review reported pIC50 values for a set of molecules.
# tgt: FGFR kinase domain (Homo sapiens, UniProt P11362, C488A/C584S)
# Construct: FGFR kinase domain (amino acids 458-765, C488A, C584S) N-terminally fused to a His6-tag; made in house
# Sequence (P11362 458-765 C488A/C584S): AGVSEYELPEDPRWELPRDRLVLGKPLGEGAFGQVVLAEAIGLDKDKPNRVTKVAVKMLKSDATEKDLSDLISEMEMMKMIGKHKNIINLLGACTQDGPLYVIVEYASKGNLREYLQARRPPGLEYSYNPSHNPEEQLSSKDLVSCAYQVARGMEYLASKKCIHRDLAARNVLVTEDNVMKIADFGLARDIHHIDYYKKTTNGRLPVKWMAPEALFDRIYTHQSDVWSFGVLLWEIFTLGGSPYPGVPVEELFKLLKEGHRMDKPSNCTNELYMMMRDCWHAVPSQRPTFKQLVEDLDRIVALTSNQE
# protocol_details: Kinase assay (ELISA) for inhibition of FGFR activity
# Assay type: biochemical
# experimental_parameters: FGFR inhibition tests, ELISA kinase assay; read-out: Activity class
pIC50: −log10 of the molar value.

Worked examples follow.
molecule="COc1ccc(CCc2cc(Nc3ccnc(NCc4cc(C)no4)n3)n[nH]2)cc1 [Example 24]" parameter=pIC50 reading="6.00 to 7.00"
molecule="COc1cccc(CCc2cc(Nc3ccnc(NCc4cc(C(N)=O)no4)n3)[nH]n2)c1 [Example 29]" parameter=pIC50 reading="> 7.00"
molecule="COc1cccc(CCc2cc(Nc3ccnc(NCc4cc(C5CC5)no4)n3)n[nH]2)c1 [Example 28]" parameter=pIC50 reading="6.00 to 7.00"

// sample c1cc(Nc2cc(C3CC3)[nH]n2)nc(NCc2cc(C3CC3)no2)n1 [Example 10] , its pIC50 was > 7.00

The values you see were collected from patent US20080004302A1.
